The reported numbers originate from patent US20250270315A1.

Catalogue of pEC50 readings, one per entry.
# measuredTarget: T1, human SIRPβ ECD recombinant protein (6×His tagged) (human, UniProt O00241 30-371)
# T1 construct: extracellular domain; Bought from Sino Biological; also called hSIRPβ ECD; not shown: 6×His tag
# T1 sequence (O00241 30-371): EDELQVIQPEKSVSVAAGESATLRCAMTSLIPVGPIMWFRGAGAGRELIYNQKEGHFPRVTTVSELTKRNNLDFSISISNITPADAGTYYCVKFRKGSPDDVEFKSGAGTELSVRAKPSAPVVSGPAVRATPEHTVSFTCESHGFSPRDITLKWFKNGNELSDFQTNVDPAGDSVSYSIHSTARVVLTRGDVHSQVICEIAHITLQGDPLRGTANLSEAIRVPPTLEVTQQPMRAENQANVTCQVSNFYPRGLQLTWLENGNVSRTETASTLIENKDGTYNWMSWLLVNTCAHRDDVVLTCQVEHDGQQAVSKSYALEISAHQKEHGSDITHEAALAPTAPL
# experimentSummary: ELISA, hSIRPβ ECD
# From the text: Binding activity of the purified chimeric antibodies against SIRPβ and SIRPBI was detected by ELISA assay using recombinant proteins of human SIRPβ ECD (FIGS. 3A and 3B), human SIRPBI ECD (FIGS. 3D and 3E) and FACS assay using CHOK 1 cells stably expressing human SIRPB (FIG. 3C).
A value of pEC50 is the negative decimal logarithm of a concentration given in moles per litre.

binder	pEC50
015c (antibody, V domains shown, also called chimeric antibody 015c) VH: EVQLQQSGVEVVQPGASVKLSCTASGFNIEAYYMHWVKQRTEQGLEWIGRIDPEDGESKYAPKFQGKATMTADTSSSTAYLQLSSLTSDDTAVYYCVRGSYEYWGQGTTLTVSS VL: QIVLTQSPAIMSASPGEKVTLTCSASSSVSSSYLYWYQQKPGSSPKLWIYSTSNLASGVPPRFSGSGSGTSYSLTISSMQAEDAASYFCYQWSSYPYTFGGGTKLEIK	10.40
025c (antibody, V domains shown, also called chimeric antibody 025c; parental antibody of 025c) VH: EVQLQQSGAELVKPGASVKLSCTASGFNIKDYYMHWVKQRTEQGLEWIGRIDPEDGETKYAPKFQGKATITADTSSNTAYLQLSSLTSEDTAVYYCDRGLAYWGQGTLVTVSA VL: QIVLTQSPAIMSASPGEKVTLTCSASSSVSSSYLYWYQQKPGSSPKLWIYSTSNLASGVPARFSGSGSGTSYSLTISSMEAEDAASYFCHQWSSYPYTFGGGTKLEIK	10.40
073c (antibody, V domains shown, also called chimeric antibody 073c) VH: QIQLVQSGPELKKPGETVKISCKASGYTFTTYGMSWVKQAPGKGLKWMVWINTYSGVPTYADDFKGRFAFSLETSASTSYLQINNLKNEDTATYFCARDPHYYGSSPAWFVYWGQGTLVTVSA VL: DIVMTQSQKFMSTTIGDRVSITCEASQIVGIAVAWYQQKPGQSPKLLIYSASNRYTGVPDRFTGSGSGTDFTLTISNMQSEDLANYFCQQYSAYPFTFGSGTKLEVK	8.67

Request: pEC50 for 042c (antibody, V domains shown, also called chimeric antibody 042c) VH: QIQLVQSGPELKKPGETVKISCRASGYTFTTYGMSWVKQAPGKGLRWMGWINTYSGVSTCADDFKGRFAFSLETSATTAYLQIHNLTNEDTATYFCARDPHSYGNSPAWFPYWGQGTLVTVSA VL: DIVMTQSQKFMSTTIRDRVSITCKASQNVGISVAWYQQKSGQSPKLLIYSASNRYTGVPDRFTGSGSGTDFTLTISNMQSEDLADYFCQQYSSYPLTFGSGTKLAIK ?
Response: 9.64

Request: Recorded pEC50 of 059c (antibody, V domains shown, also called chimeric antibody 059c) VH: QVQLQQSGPELVKPGASVKMSCKASGYTFSEYVLSWVKQRTGQGLEWIGEIYPGTITTYYNEKFKGKATLTADKSSNTAYIQLTSLTSEDSAVYFCGRFYDYDGGWFAYWGQGTLLTVSA VL: ENVLTQSPEKMAVSLGQKVTMTCSASSSVSSSDLHWYQQKSGASPKPLIHGTSNLASGVPARFSGSGSGTSYSLTISSVEAEDAATYYCQQWSGYPWTFGGGTNLEIK , please.
Response: 10.52

Request: Return reported pEC50; argument: 071c (antibody, V domains shown, also called chimeric antibody 071c) VH: QIQLVQSGPELKKPGETVKISCKASGYTFTTYGMSWVKQAPGKGLKWMVWINTYSGVPTYADDFQGRFAFSLETSASTSYLQINNLRNEDTATYFCARDPHYYGTSPAWFAYWGQGTLVTVSA VL: DIVMTQSQKFMSTTIGDRVIITCKASQIVGIAVAWYQQKPGQSPKLLIYSASNRFTGVPDRFTGSGSGTDFTLTISNMQSEDLADYFCQQYSTYPFTFGSGTKLEIK
Response: 8.82

Request: Entry hu1H9G4 (antibody, V domains shown) VH: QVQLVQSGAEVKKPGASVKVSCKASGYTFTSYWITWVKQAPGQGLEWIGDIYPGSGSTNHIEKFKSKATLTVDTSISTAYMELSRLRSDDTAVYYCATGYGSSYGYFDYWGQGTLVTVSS VL: DIQMTQSPSSLSASVGDRVTITCRASENIYSYLAWYQQKPGKAPKLLIYTAKTLAEGVPSRFSGSGSGTDFTLTISSLQPEDFATYYCQHQYGPPFTFGQGTKLELK : reported pEC50 = ?
Response: 10.52
